- test target: Histones
- assay notes: AtheNA, Ab 12.5 ug/ml
Class MET: Athena reading (relative luminescence units) at least 20. Class NOT MET: Athena reading (relative luminescence units) below 20.

Past entries and their recorded results:
- CH240_4A/293i (antibody, from a related filing, V domains shown) VH: QVQLVQSGTEVRKPGASVTISCKASGYTFNNFYVHWVRQAPGQGLECMGWIDPSVGRISYGQKFQGRVTMTRDRSTSTVYMGLSSLRSEDTAMYYCVRDVGTEGSLLHFDHWGQGTLVIVSA VL: EIVLTQSPATLSVSPGERATLSCRATQSVRSNLAWYQQKRGQAPRLLIYSASTRATGIPARFSGSGSGTEFTLTISSVQSEDFAVYYCLQYNNWWTFGQGTKVEIK: NOT MET
- CH241 (antibody, from a related filing, V domains shown) VH: QVQLVQSGAAVKKPGASVRVSCKASGYTFTSSHIHWVRQAPGQGPEWMGMIDPSVGRPTTAGKFQGRVTMTRDRYTSTAYMDLSSLRSEDTAVYYCARSVETTGSLLYFDYWGQGTLITVSS VL: EIVLTQSPATLSVSPGERATLSCRASQSVRSNIAWYQQKPGQAPRLLIHGASTRATGIPGRFSGSGSGPEFTLAISSVQSEDFAVYYCQQYNDWWTFGQGTKVEIK: NOT MET

q: // inclusive: Athena reading (relative luminescence units) at least 20? input: CH235_4A (antibody, from a related filing, V domains shown) VH: QVQLVQSGAEVKKPGASVTVSCQASGYTFTNYYVHWVRQAPGQGLQLMGWIDPSWGRTNYAQNFQGRITMTRDTSTSTVYMEMRSLRSEDTAVYYCARNVATEGSLLHYDYWGQGTLVTVSA VL: EIVLTQSPATLSVSPGERATLSCRASQSVRSNLAWYQQRPGQAPRLLIYGTSTRATGVPARFSGRGSGTEFTLAISSMQSEDFAVYLCLQYNNWWTFGQGTKVEIK
a: NOT MET

q: Could you verify whether the entry CH239_4A/293i (antibody, from a related filing, V domains shown) VH: QVQLVQSGAEVRKPGASVTVSCKASGYTFNNFYVHWVRQAPGQGLECMGWIDPSVGRINYAQKFQGRVTMTRDRSTSTVYMGLSSLRSEDTAIYYCVRDVGTEGSLLHFDHWGQGTLVIVSA VL: EIVLTQSPATLSVSPGERATLSCRATQSVRSNVAWYQQKPGQAPRLLIYSASTRATGIPARFSGSGSGTEFTLTIASMQSEDFAVYYCLQYDDWWTFGQGTKVEIK shows Athena reading (relative luminescence units) of no less than 20?
a: MET

q: Record CH236_4A/293i (antibody, from a related filing, V domains shown) VH: QVQLVQSGAAVKRPGASVTISCRASGYTFTTYYIHWVRQAPGQRLELMGMIDPSRGRTDYAQKFQGRVTMSRDTSTSTLYMELRSLRPDDTALYYCVRNVGTEGSLLHYDYWGQGTLVTVSS VL: EIVLTQSPATLSVSPGERVTLSCRASQSVRNNLAWYRQKRGQAPRLLIYGASTRATGIPARFSGSGSGTEFTLTISSMQSEDFAVYYCQQYNNWWTFGQGTKVEIK ; criterion: Athena reading (relative luminescence units) no lower than 20. Met?
a: MET

The measurements presented in this section are drawn from patent US10344077.
